Provide the recorded human MASP1 IC50 for the entries that follow.
Biological target: T1, Recombinant human MASP1 enzyme (fragment corresponding to amino acids 297-699, C-terminal His Tag) (human, UniProt P48740 297-699)
T1 sequence: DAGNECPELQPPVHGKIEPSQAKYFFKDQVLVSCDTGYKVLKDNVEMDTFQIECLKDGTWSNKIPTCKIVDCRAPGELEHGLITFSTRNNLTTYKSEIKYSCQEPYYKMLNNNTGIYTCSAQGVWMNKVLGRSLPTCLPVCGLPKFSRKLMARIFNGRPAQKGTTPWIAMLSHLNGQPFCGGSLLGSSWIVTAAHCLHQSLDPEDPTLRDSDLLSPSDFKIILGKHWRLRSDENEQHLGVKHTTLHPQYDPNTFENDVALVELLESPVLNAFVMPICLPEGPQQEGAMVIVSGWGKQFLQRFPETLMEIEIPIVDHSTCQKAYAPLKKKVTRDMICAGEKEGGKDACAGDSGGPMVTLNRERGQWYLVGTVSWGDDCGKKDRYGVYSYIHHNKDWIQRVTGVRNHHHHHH
Assay: cell-based or functional assay
Numbered stars: 1 amine (or outer) side, 2 acyl side, 3 side chain; on linkers, the order of the positions; unused ones are H or OH. Bridge positions count the residues as written; N and C are the ends. Square brackets hold non-standard residues; d marks the D form. Ends that are not written are not given here. NHCH2(1,3-C6H4)CH2CO = O=C(Cc1cccc(CN[*:1])c1)[*:2]; Oic = O=C(O)[C@@H]1C[C@@H]2CCCC[C@@H]2N1; Pen = CC(C)(S)[C@H](N)C(=O)O; Sar = CNCC(=O)O
Numbers only, in nM.

[Sar]ICSRSLP[Oic]I[Pen]IP[NHCH2(1,3-C6H4)CH2CO]-OH (disulfide 3-11; N-terminus assumed; SMILES CC[C@H](C)[C@H](NC(=O)CNC)C(=O)N[C@H]1CSSC(C)(C)[C@@H](C(=O)N[C@H](C(=O)N2CCC[C@H]2C(=O)NCc2cccc(CC(=O)O)c2)[C@@H](C)CC)NC(=O)[C@H]([C@@H](C)CC)NC(=O)[C@@H]2C[C@@H]3CCCC[C@@H]3N2C(=O)[C@@H]2CCCN2C(=O)[C@H](CC(C)C)NC(=O)[C@H](CO)NC(=O)[C@H](CCCNC(=N)N)NC(=O)[C@H](CO)NC1=O) [((N-Me)G)-IC+SRSLP-(Oic)-I-(Pen)+IP-(3-Aminomethylphenylacetic acid)-OH] ... 9.6

Below: the item to evaluate.
Query: human MASP1 IC50; subject: [Sar]ICSRSLP[Oic]I[Pen]IPGD-OH (disulfide 3-11; N-terminus assumed; SMILES CC[C@H](C)[C@H](NC(=O)CNC)C(=O)N[C@H]1CSSC(C)(C)[C@@H](C(=O)N[C@H](C(=O)N2CCC[C@H]2C(=O)NCC(=O)N[C@@H](CC(=O)O)C(=O)O)[C@@H](C)CC)NC(=O)[C@H]([C@@H](C)CC)NC(=O)[C@@H]2C[C@@H]3CCCC[C@@H]3N2C(=O)[C@@H]2CCCN2C(=O)[C@H](CC(C)C)NC(=O)[C@H](CO)NC(=O)[C@H](CCCNC(=N)N)NC(=O)[C@H](CO)NC1=O) [((N-Me)G)-IC+SRSLP-(Oic)-I-(Pen)+IPGD-OH]
1
